Listing: Ki of selected compounds
Molecular target: GCN2 kinase (Homo sapiens)
Sequence (Q9P2K8 whole entry): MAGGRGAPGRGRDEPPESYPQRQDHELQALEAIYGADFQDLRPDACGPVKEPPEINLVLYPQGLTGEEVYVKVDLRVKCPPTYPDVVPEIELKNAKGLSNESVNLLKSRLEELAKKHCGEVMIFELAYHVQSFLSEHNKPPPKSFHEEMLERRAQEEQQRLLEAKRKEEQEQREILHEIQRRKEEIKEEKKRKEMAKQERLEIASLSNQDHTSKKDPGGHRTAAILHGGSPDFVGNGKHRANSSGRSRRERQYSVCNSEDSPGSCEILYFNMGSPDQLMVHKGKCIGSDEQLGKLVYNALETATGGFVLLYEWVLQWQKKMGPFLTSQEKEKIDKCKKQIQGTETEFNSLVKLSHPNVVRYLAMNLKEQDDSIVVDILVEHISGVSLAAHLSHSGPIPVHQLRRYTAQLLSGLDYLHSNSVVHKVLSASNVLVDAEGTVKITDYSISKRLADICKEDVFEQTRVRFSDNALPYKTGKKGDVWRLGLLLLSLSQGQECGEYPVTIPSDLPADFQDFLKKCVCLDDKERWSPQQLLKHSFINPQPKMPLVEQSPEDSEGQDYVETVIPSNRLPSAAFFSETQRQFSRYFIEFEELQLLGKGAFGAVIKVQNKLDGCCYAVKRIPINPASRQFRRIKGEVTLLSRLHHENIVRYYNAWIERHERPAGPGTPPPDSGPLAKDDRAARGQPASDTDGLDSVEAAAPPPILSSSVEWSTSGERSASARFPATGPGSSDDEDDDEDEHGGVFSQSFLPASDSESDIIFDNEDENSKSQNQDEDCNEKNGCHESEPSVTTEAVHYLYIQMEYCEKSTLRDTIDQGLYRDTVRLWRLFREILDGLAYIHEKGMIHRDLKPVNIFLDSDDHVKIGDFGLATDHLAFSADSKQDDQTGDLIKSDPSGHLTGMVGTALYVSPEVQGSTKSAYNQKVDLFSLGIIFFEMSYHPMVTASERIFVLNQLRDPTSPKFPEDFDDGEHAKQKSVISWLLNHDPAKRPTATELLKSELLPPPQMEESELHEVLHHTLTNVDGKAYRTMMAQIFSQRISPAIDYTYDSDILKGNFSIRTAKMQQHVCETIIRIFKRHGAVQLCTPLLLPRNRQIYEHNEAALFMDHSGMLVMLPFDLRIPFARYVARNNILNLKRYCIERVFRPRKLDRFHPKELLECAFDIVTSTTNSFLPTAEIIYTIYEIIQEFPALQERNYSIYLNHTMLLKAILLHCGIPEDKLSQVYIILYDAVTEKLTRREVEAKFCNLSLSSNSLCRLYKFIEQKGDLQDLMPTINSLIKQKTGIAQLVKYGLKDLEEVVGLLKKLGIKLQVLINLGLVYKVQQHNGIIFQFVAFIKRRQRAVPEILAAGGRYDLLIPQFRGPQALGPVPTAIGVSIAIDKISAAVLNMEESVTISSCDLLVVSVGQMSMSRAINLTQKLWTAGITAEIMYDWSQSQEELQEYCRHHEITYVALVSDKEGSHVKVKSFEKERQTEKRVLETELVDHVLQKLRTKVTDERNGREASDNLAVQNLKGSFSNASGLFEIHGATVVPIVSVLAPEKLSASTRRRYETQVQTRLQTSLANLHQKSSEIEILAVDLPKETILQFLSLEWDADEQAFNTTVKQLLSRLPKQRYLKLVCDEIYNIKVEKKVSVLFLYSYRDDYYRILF
Experiment: GCN2 enzyme inhibition assay (Transcreener ADP2 fluorescence polarization)
Type: biochemical
Conditions: compounds of Formula III; 280 μM ATP, 4 nM GCN2 kinase

Solved cases (6 shown):
CS(=O)(=O)NC[C@@H]1CN(c2cc(-c3cnn4cc(F)c(C(F)F)nc34)ncn2)CCO1
< 10 nM
c1ccc(-c2cc(-c3cnn4cccnc34)ccn2)cc1
> 1000 nM
CC1C(CNS(C)(=O)=O)C(F)(F)C(C)CN1c1cc(-c2cnn3ccc(C(F)F)nc23)ncn1 (stereo not shown)
< 10 nM
CC(=O)N1CCN(c2cc(-c3cnn4ccc(C(F)F)nc34)ncn2)CC1
10 to 1000 nM
CC(=O)N1CCN(c2cc(-c3cnn4ccc(C(F)F)nc34)ccn2)CC1
10 to 1000 nM
CS(=O)(=O)NCC1CCCN(c2cc(-c3cnn4ccc(C(F)F)nc34)ncn2)C1 (stereo not shown)
< 10 nM

Entry O=C1CCN(c2cc(-c3cnn4ccc(C(F)(F)F)nc34)ncn2)CCN1 under GCN2 kinase (Homo sapiens) had Ki of 10 to 1000 nM
